- Test system: [^3 H]-GABA uptake
- Assay Text: in vitro inhibition of [^3 H]-GABA uptake (rat cortical tissue homogenate)
- Type: biochemical, Male wistar rat
- Condition Parameters: tris HCl buffer pH 7.5, 60 minutes at 30° C.
Structures can show the parent of a compound that is named as a salt.
Result Type: IC50

[
  {
    "Compound": "CC(C)C=C(C=NOCCN1CCC[C@@H](C(=O)O)C1)c1ccccc1",
    "Recorded Value": "236 nM"
  },
  {
    "Compound": "O=C(O)[C@@H]1CCCN(CCO/N=C(/c2ccccc2)C(F)(F)F)C1 [Example 6, hydrochloride]",
    "Recorded Value": "4500 nM"
  },
  {
    "Compound": "CCCCCCC/C(=N/OCCN1CCC[C@@H](C(=O)O)C1)c1ccccc1 [Example 3, hydrochloride]",
    "Recorded Value": "2200 nM"
  },
  {
    "Compound": "Cc1ccccc1/C=N/OCCN1CCC[C@@H](C(=O)O)C1 [Example 1, hydrochloride]",
    "Recorded Value": "> 9000 nM"
  },
  {
    "Compound": "CCCCCCC/C(=N\\OCCN1CCC[C@@H](C(=O)O)C1)c1ccccc1 [Example 4, hydrochloride]",
    "Recorded Value": "1100 nM"
  },
  {
    "Compound": "COC/C(=N\\OCCN1CCC[C@@H](C(=O)O)C1)c1ccccc1 [Example 5, hydrochloride]",
    "Recorded Value": "2000 nM"
  }
]
